Biological target: N-formyl peptide receptor 2 (Homo sapiens)
Sequence (P25090 whole entry): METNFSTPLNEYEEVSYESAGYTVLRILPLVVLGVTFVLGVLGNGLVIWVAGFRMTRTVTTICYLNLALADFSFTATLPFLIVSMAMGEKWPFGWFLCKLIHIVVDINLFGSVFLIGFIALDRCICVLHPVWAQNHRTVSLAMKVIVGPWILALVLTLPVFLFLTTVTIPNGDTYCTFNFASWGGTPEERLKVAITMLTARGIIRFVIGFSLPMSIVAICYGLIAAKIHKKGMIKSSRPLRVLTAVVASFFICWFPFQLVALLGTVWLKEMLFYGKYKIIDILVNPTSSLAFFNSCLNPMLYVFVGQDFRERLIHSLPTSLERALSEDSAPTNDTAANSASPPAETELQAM
Assay: Agonist activity at FPR2 (unknown origin) transfected in CHO cells by cAMP assay
Format: functional, cell-based
Answer each item with its documented pEC50.
Quick note: pEC50 means taking -log10 of the concentration in moles per liter.

QUERY: Fill in pEC50 for record O=C(Nc1ccc(Br)cc1)[C@@H]1C2CCC([C@@H]1C(=O)O)C21CC1 (some centres undefined)
RESULT: 6.55

QUERY: Fill in pEC50 for record O=C(CN1C(=O)C2C(C1=O)C1CCC2C12CC2)Nc1ccc(Br)cc1 (centres undefined)
RESULT: 6.92

QUERY: Fill in pEC50 for record CCOC(=O)[C@H]1C2CCC([C@H]1C(=O)Nc1ccc(Br)cc1)C21CC1 (some centres undefined)
RESULT: 5.85

QUERY: Fill in pEC50 for record `COc1cc(F)c([C@@H]2CNC(=O)[C@H]2Nc2cc(-c3ccc(Cl)cc3)no2)c(F)c1`
RESULT: 8.00
